# ASSAYED SYSTEM: T1, maltose-binding protein-fused CD30 (Homo sapiens, UniProt P28908-1)
# T1 construct: signal peptide in the construct; human CD30 extracellular domains, residues 1-336; also called CD30-MBP; source: Expi293, purified (Ni-NTA, Superdex200); not shown: MBP, C-terminal, kept
# T1 sequence (P28908 19-336): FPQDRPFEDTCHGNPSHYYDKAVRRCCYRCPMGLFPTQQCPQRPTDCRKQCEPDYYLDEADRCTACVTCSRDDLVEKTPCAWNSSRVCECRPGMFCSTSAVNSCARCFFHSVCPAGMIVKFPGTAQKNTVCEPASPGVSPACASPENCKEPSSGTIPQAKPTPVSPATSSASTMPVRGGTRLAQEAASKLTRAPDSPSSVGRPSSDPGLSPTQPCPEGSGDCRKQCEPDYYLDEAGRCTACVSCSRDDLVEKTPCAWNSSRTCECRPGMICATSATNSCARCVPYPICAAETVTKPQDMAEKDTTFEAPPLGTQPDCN
# EXPERIMENTAL DETAILS: SPR; Biacore T200; cAb or BpAb captured on anti-human Fc (CM5), CD30-MBP flowed at 0, 2 and 20 nM (0, 20 and 200 nM for T426), contact 90 s, dissociation 300 s; 'at a rough level'
# STATED CONDITIONS: both partners purified
OBSERVATION TYPE: binding result

T104 cAb (antibody, V domains shown) VH: QIQLVQSGPELKKPGETVKISCKASGYTFTDYSMHWVKQAPGKGLKWMGWINTETGEPTYADDFKGRFAFSLETSASTAYLQINNLKNEDTATYFCTEGYVFDFWGQGTTLTVSS VL: DILLTQSPAILSVSPGERVSFSCRASRSIGTSIHWYQQRTNGSPRLLINYASESISGIPSRFSGSGSGTDFTLSINSVESEDIADYYCQQSNSWPLTFGAGTKLELK : binds

Data provenance: paper PMC11826918
